biological target: Anti-CD28 Fab (SEQ ID NOs: 202, 203); assay: phage binding ELISA on captured Fab;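 note: clonal phage supernatants added briefly to wells pre-incubated with CD28 antigen or with blocking buffer only, then washed, bound phage read by ELISA using HRP-coupled anti-M13 antibody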
Sequence (VH, as listed by the source, chain 1 of 2): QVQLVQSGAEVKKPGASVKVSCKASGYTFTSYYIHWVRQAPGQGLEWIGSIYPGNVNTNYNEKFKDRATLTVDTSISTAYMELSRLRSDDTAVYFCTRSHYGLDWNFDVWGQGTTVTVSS
Sequence (VL, as listed by the source, chain 2 of 2): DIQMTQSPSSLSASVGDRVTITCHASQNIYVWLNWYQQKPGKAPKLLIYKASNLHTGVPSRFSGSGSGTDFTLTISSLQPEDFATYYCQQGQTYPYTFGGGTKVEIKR
Reported Anti-CD28 Fab (SEQ ID NOs: 202, 203) signal is given for each of the following binders.
quantity measured: Anti-CD28 Fab (SEQ ID NOs: 202, 203) signal

binder	assay result
YCEGHVPEYLVKCL [Phage-778]	0.96
YCDGHDARYMTKCL [Phage-756]	1.04
YCDGHVGAYMWKCL [Phage-771]	0.99
YCAGHLPQYVSKCL [Phage-836]	0.7
YCDGHSKEYMSKCL [Phage-779]	0.96
YCTGWQVAYMQNCF [Phage-884]	0.42
YCQGHSVQYMAKCL [Phage-825]	0.77
